- protocol-details: Human HepG2 cell viability assay in 384 well format
- Assay type: toxicity, cell-based
- Design: dose 125 nL, time 70.5 hour; concentration not given beside the values
- particulars: HepG2 cells, read-out: Inhibition
measured-quantity: cytotoxicity at 70.5 h (%)
Reply numerically in %, unit not repeated.

# annotated cases, reported cytotoxicity at 70.5 h shown
{"molecule": "CN(C)c1ccc(C(=O)N2CCC(c3cc4ncccc4[nH]3)CC2)cc1", "recorded-number": -1.4}
{"molecule": "Cc1nccn1CC1CCCN1S(=O)(=O)Cc1ccccc1F (centres undefined)", "recorded-number": -7.26}
{"molecule": "COCCO[C@H]1CCN(C(=O)c2ccsc2)[C@H]1Cc1cnn(C)c1", "recorded-number": -11.9}
{"molecule": "CCc1nnc(C2Cc3ccccc3CN2Cc2ncc(Cl)n2C)o1 (centres undefined)", "recorded-number": -6.23}
{"molecule": "Oc1cc(C2CCCCN2Cc2cccs2)nc(-c2ccncc2)n1 (centres undefined)", "recorded-number": -11.8}

QUERY: I would be grateful if you could share the reported cytotoxicity at 70.5 h for O=C(Nc1ccnc(OC2CCOC2)c1)c1ccccc1Cl (centres undefined) .
RESULT: -4.06

QUERY: I would be grateful if you could share the reported cytotoxicity at 70.5 h for CCCN1C[C@H]2CC[C@@H]1CN(C(=O)Cc1c(C)nc(CC)[nH]c1=O)C2 .
RESULT: -8.7

QUERY: I would be grateful if you could share the reported cytotoxicity at 70.5 h for O=C(NCCNCC1CNc2ccnn2C1)c1ccc(F)cc1 (centres undefined) .
RESULT: -6.67

QUERY: I would be grateful if you could share the reported cytotoxicity at 70.5 h for CC1(C)CNC(=O)c2nc(C3CCCN(S(C)(=O)=O)C3)[nH]c2C1 (centres undefined) .
RESULT: -6.33

QUERY: I would be grateful if you could share the reported cytotoxicity at 70.5 h for Cc1cc(C(=O)NCC2CCCC2)c(C)n1-c1cccnc1 .
RESULT: -6.04
